binders and their reported log10(IC50)
- assay_system: T1, recombinant human lymphotoxin-α homotrimer (human LTα3) (human, UniProt P01374 35-205)
- T1 construct: Coated on plates in the ELISAs; also called rhLTα; lymphotoxin-α3 trimer
- T1 sequence (looked up): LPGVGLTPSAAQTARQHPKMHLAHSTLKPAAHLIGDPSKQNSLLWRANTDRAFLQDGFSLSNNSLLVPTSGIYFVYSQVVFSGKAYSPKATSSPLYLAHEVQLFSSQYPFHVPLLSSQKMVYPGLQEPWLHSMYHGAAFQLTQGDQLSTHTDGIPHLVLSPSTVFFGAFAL
- method_summary: phage competitive ELISA: rhLTα in solution competes with plate-coated LTα
Please be aware that the numbers have been log10-transformed from IC50 in nM.

The recorded log10(IC50) for entry phage-displayed 2C8 Fab clone D8 (Fab, V domains shown) VH: EVQLVESGGGLVQPGGSLRLSCAASGYTFTSYVIHWVRQAPGKGLEWVGYNNPYNDGTNYNEKFKGRATISSDKSKNTAYLQMNSLRAEDTAVYYCSRPTMLPWFAYWGQGTLVTVSS VL: DIQMTQSPSSLSASVGDRVTITCRASQAVSSAVAWYQQKPGKAPKLQIYSASHRYTGVPSRFSGSGSGTDFTLTISSLQPEDFATYYCQQFYSVPWTFGQGTKVEIKR equals 2.14

Per the record, phage-displayed 2C8 Fab clone G7 (Fab, V domains shown, also called 2C8 clone G7) VH: EVQLVESGGGLVQPGGSLRLSCAASGYTFTSYVIHWVRQAPGKGLEWVGYNNPYNDGTNYNEKFKGRATISSDKSKNTAYLQMNSLRAEDTAVYYCSRPTMLPWFAYWGQGTLVTVSS VL: DIQMTQSPSSLSASVGDRVTITCRASQAVSSAVAWYQQKPGKAPKLQIYSASHRYTGVPSRFSGSGSGTDFTLTISSLQPEDFATYYCQENYSTPWTFGQGTKVEIKR has log10(IC50) of -0.24

Reported log10(IC50) for phage-displayed 2C8 Fab clone G2 (Fab, V domains shown) VH: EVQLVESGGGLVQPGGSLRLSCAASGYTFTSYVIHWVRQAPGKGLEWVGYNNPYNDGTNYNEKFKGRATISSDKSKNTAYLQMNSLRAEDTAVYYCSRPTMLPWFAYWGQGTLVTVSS VL: DIQMTQSPSSLSASVGDRVTITCRASQAVSSAVAWYQQKPGKAPKLQIYSASHRYTGVPSRFSGSGSGTDFTLTISSLQPEDFATYYCQQYYSTPWTFGQGTKVEIKR was 0.65

Data provenance is patent US20130011412A1.
